NC2 (SAGE tag count) overview
System: colorectal tissue transcripts
method.notes: SAGE of normal, adenoma and cancer colorectal tissue (transcript tag counts)
Design: species or system human
measurement.context: SAGE library NC2
A bare number is all that is needed in reply.

CTCAGAACTT (chemistry not fully specified) = 3

Query :: Give the value of NC2 (SAGE tag count) reported for the following: AGAATAGCTT (chemistry not fully specified)
Result :: 67

###

Test system: colorectal tissue transcripts
method.notes: SAGE of normal, adenoma and cancer colorectal tissue (transcript tag counts)
Set-up: species or system human
measurement.context: normal colorectal tissue library 1
readout.type: NC1 (SAGE tag count)
A bare number is all that is needed in reply.

TCACAGTGCC (chemistry not fully specified) = 26
TAGGATGGGG (chemistry not fully specified) = 24
TTGGGGTTTC (chemistry not fully specified) = 111
TTTCTCGTCG (chemistry not fully specified) = 10
TAGACTAGCA (chemistry not fully specified) = 31
TAATCCCAGC (chemistry not fully specified) = 37
TTTAACGGCC (chemistry not fully specified) = 93

Query :: Give the value of NC1 (SAGE tag count) reported for the following: TGGCCATCTG (chemistry not fully specified)
Result :: 30
